Kindly state z-score for each of the entries shown.
assay: CREB reporter modulators without forskolin, primary screen, cell-based, PC12, CRE-LacZ reporter, unstimulated (AID 1145); conditions: no forskolin, luminescence, 4.5 h, higher = more signal, called active from +8 up or from −8 down
Answers are plain numbers.

Worked set:
CCCCN1CC=CC23O[C@@H]4C=CCOC(=O)[C@@H]4[C@H]2C(=O)N(C(CO)C(C)C)[C@@H]3C1=O (stereo partly drawn) : 0.463
CCOC(=O)C1=CC[C@@H](c2ccccc2)N(S(=O)(=O)C[Si](C)(C)C)[C@H]1c1ccccc1 : -0.63
C=CCOC(=O)[C@@H]1[C@H]2C(=O)O[C@H](c3ccccc3)[C@H](c3ccccc3)N2[C@H](c2ccc(OCCOC(=O)[C@H]3C[C@H]4C(=O)NCC(=O)N4[C@H]3c3ccc(O)cc3)cc2)[C@@]12C(=O)Nc1ccc(I)cc12 : -0.394
CCCC[C@H]1OB(O)C[C@H]2C1=C(C)C[C@H]1C(=O)C=CC(=O)[C@H]12 : 19.6
NC(=O)NCC#Cc1ccc2c(c1)[C@]1(C(=O)N2)[C@H](C(=O)Nc2nc3ccccc3s2)[C@H]2C(=O)O[C@H](c3ccccc3)[C@H](c3ccccc3)N2[C@@H]1c1ccc(OCCO)cc1 : 0.182

Take each entry in turn and give its z-score.
1. COC(=O)C1(CC(C)C)C=C2C(=C(C(C)C)C(=O)C2C)CN1 (stereo not drawn)
2. [N-]=[N+]=NCc1ccccc1C[C@]1(C(=O)N2CCCCC2)N=C(c2ccc(OCCCO)cc2)O[C@H]1c1ccccc1
3. C=CCN1C(=O)[C@]2(O[C@H](CCn3cc([C@H](O)c4ccccc4)nn3)[C@@H]([Si](C)(C)c3ccc(OC)cc3)[C@@H]2C)c2cc(N3C(=O)c4cccc5cccc3c45)ccc21
4. COCCOC(=O)N1C(=O)[C@@]2(c3cc(C#CCCO)ccc31)[C@H](c1ccc(O)cc1)N1[C@H](c3ccccc3)[C@H](c3ccccc3)OC(=O)[C@H]1[C@@H]2C(=O)N1CCc2cc(OC)c(OC)cc2C1
5. O=C(NCC(F)(F)F)[C@@H]1c2ccccc2C(=O)N(CC23CC4CC(CC(C4)C2)C3)[C@H]1c1ccc(CO)cc1
6. CC1(C)OC[C@@]23C=C(Br)[C@@H](C[C@H]12)[C@@]1(CO1)C3=O
7. CC(C)(C)OC(=O)CC[C@]1(C(=O)N2CCOCC2)N=C(c2ccc(OCCCO)cc2)O[C@H]1c1ccccc1CN=[N+]=[N-]

[1.34, -0.0017, 9.81, -0.0647, -0.412, 0.494, -0.263]

// C=CCC(OC(C)=O)[C@@H]1[C@@H](N(Cc2ccc(-c3ccccc3)cc2)C(=O)c2ccc(C)cc2)c2cc(OCCCO)ccc2N1C(=O)c1ccc2ccccc2c1 (stereo partly drawn) : z-score value = 1.97

###

assay: PSAC antagonists in infected red cells, primary screen, cell-based, P. falciparum Indochina, OD700, 18 h (AID 1157); conditions: P. falciparum Indochina infected erythrocytes, osmotic lysis OD700, 18 h; higher = more signal, called active from +8 up or from −8 down
READOUT TYPE: z-score
Answers are plain numbers.

CCCCC(O)C1C=CC2C(=O)NC(=O)C2N1Nc1ccc(Cl)cc1Cl (centres undefined) : 0.998
CCCC=C(CCC)[C@@H](NC(=O)c1ccccc1)c1ccc(C(=O)OC)cc1 : -0.289
CN1C=C(C(=O)OCCS(C)(=O)=O)C(C(=O)OCCS(C)(=O)=O)=CC(CCCO)=CC1c1ccc(CN2CCCC2)cc1 (centres undefined) : 0.0374
C[C@]1(C(=O)NCC(F)(F)F)c2ccccc2C(=O)N(Cc2ccc(OC(F)(F)F)cc2)[C@H]1c1ccc(CO)cc1 : 0.451
COCCOC(=O)N1C(=O)[C@@]2(c3cc(C#CC4=CCCCC4)ccc31)[C@H](c1ccccc1OCCO)N1[C@H](c3ccccc3)[C@H](c3ccccc3)OC(=O)[C@H]1[C@@H]2C(N)=O : -0.0482
COCCOC(=O)N1C(=O)[C@@]2(c3cc(C#CCCO)ccc31)[C@H](C(=O)N1CCc3cc(OC)c(OC)cc3C1)[C@H]1C(=O)O[C@H](c3ccccc3)[C@H](c3ccccc3)N1[C@@H]2c1ccccc1OCCO : 1.05
COCCOC(=O)N1C(=O)[C@@]2(c3cc(C#CC4(O)CCCCCC4)ccc31)[C@H](C(=O)N1CCc3cc(OC)c(OC)cc3C1)[C@H]1C(=O)O[C@H](c3ccccc3)[C@H](c3ccccc3)N1[C@@H]2c1ccc(O)cc1 : 0.712
C=C(CCCC)C(=O)CC[C@H](OC(C)=O)c1ccccc1OCCO : -1.83
COc1ccc(NC(=O)O[C@H]2[C@H](OC(=O)Nc3ccc4c(c3)OCO4)[C@H](OC(=O)Nc3ccc4c(c3)OCO4)[C@@H](OC)O[C@@H]2CO)cc1 : 0.597
C=CCC(OC(C)=O)[C@@H]1[C@@H](N(Cc2ccc(-c3cccc(C(F)(F)F)c3)o2)C(=O)Cc2ccc(OC)cc2)c2cc(OCCCO)ccc2N1C(=O)c1ccc2ccccc2n1 (some centres undefined) : 0.289

For each entry beneath this line, provide reported z-score.
1. O=C1C2C=CC(C(O)c3cccc(O)c3)N(Nc3ccccc3F)C2C(=O)N1c1ccccc1 (centres undefined)
2. COCC1=C([C@H](O)CCc2ccccc2)[C@H](CO)n2c(=O)n(-c3ccccc3)c(=O)n2C1
3. COc1ccc([Si](C)(C)[C@H]2[C@H](CCn3cc([C@H](O)c4ccccc4)nn3)O[C@@]3(C(=O)N(c4ccccc4)c4ccccc43)[C@@H]2C)cc1
4. C=CC[C@@]1(C(=O)N(C)C)N=C(c2ccc(OCCCO)cc2)O[C@@H]1c1ccccc1

[0.0443, -1.61, 1.23, 1.13]
